I'd appreciate it if you could supply self-splicing fitness (ln) values for the items below.
experiment: self-splicing fitness, log relative to wild type (ln ratio); higher = more splicing; Tetrahymena group I intron in knt gene, E. coli kanamycin selection, DiMSum; sequences stand for … in CUCUCU…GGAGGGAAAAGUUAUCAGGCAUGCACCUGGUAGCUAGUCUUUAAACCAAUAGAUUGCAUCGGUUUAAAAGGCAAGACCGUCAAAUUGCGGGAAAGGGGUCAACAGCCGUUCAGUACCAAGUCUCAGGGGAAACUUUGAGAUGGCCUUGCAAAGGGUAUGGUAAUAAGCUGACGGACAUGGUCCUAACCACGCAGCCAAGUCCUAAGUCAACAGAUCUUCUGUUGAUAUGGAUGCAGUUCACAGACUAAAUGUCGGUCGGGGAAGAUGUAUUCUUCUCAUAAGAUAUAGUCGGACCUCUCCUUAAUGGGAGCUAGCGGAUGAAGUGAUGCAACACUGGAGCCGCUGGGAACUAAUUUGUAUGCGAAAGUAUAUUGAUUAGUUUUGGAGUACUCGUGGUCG;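 note: selection with 25 µg/mL kanamycin versus none on LB agar overnight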
reported conditions: 37 °C
Give bare numbers.

Would you please look over these solved cases?
[[record]]
sequence_record = "CGUGAGCAAUAUUACGUGUC"
reported_result = -3.04

[[record]]
sequence_record = "AACGAGCAAUAUUACGGUUA"
reported_result = -0.413

[[record]]
sequence_record = "UCCAAGCAAUAUUACGUGCC"
reported_result = -2.28

[[record]]
sequence_record = "UUAAAGCAAUAUUACGCAGU"
reported_result = -1.36

[[record]]
sequence_record = "UACGAGCAAUAUUACGAUCG"
reported_result = -0.663

[[record]]
sequence_record = "CAAAAGCAAUAUUACGUGGA"
reported_result = -2

[[record]]
sequence_record = "ACUAAGCAAUAUUACGAGAU"
reported_result = -2.45

[[record]]
sequence_record = "GAAUAGCAAUAUUACGUUAG"
reported_result = -1.94


Provide self-splicing fitness (ln) for all items below, preserving their order.
1. AUCGAGCAAUAUUACGAGUG
2. ACACAGCAAUAUUACGCCGA
3. CGCGAGCAAUAUUACGGUAC
4. CUAGAGCAAUAUUACGGAUC
5. GUUUAGCAAUAUUACGACUA

[-2.09, -1.34, -3.97, -3.06, 0.0789]

Provide self-splicing fitness (ln) for all items below, preserving their order.
1. AUGCAGCAAUAUUACGAUGA
2. GCAGAGCAAUAUUACGUAAU

[-1.04, -1.95]

====

I'd appreciate it if you could supply self-splicing fitness (ln) values for the items below.
experiment: self-splicing fitness, log relative to wild type (ln ratio); higher = more splicing; Tetrahymena group I intron in knt gene, E. coli kanamycin selection, DiMSum; sequences stand for … in CUCUCU…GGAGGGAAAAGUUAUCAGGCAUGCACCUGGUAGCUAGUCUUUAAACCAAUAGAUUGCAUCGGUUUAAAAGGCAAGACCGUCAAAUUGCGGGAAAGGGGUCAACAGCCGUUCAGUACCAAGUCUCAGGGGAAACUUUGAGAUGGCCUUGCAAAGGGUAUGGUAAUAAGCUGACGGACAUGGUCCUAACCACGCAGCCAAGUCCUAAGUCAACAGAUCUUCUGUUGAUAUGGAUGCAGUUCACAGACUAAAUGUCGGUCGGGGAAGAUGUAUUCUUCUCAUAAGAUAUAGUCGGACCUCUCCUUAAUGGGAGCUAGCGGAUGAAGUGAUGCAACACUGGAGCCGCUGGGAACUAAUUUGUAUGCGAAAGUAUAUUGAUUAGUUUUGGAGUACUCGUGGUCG
reported conditions: 37 °C

[[record]]
sequence_record = "UUAAAGCAAUAUUACGGGCU"
reported_result = -0.716

[[record]]
sequence_record = "AUAUAGCAAUAUUACGACAA"
reported_result = 0.567

[[record]]
sequence_record = "GAUGAGCAAUAUUACGUACA"
reported_result = -0.48

[[record]]
sequence_record = "UACCAGCAAUAUUACGAUCG"
reported_result = -0.31


Provide self-splicing fitness (ln) for all items below, preserving their order.
1. GCCGAGCAAUAUUACGCACC
2. CAACAGCAAUAUUACGUCAC
3. AUCAAGCAAUAUUACGGCUA
4. AAGCAGCAAUAUUACGACGC
5. AUGGAGCAAUAUUACGUAGU
6. CGUAAGCAAUAUUACGCAGG
7. UGCUAGCAAUAUUACGUGCG

-0.483
-2.26
0.184
-0.525
-1.62
-1.02
-1.7

Provide self-splicing fitness (ln) for all items below, preserving their order.
1. GCCGAGCAAUAUUACGCCUU
2. GACCAGCAAUAUUACGCCAG
3. GACUAGCAAUAUUACGAGAC
4. CGCUAGCAAUAUUACGCGUC
5. GCUCAGCAAUAUUACGAGGU

[-2, -0.652, -1.76, -3.09, -2.08]

====

I'd appreciate it if you could supply self-splicing fitness (ln) values for the items below.
experiment: self-splicing fitness, log relative to wild type (ln ratio); higher = more splicing; Tetrahymena group I intron in knt gene, E. coli kanamycin selection, DiMSum; sequences stand for … in CUCUCU…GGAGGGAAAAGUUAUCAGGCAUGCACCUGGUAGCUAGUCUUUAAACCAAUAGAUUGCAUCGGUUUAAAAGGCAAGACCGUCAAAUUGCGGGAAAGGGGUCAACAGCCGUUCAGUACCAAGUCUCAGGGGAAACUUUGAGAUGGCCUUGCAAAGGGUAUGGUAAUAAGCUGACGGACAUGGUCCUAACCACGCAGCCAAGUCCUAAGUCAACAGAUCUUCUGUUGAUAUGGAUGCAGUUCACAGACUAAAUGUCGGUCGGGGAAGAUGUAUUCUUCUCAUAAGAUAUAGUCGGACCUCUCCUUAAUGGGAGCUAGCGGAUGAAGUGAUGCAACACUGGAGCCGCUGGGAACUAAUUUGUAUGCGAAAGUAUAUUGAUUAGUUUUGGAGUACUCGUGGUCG
reported conditions: 37 °C
Give bare numbers.

Would you please look over these solved cases?
[[record]]
sequence_record = "CUUCAGCAAUAUUACGGAGU"
reported_result = -3.23

[[record]]
sequence_record = "AAGUAGCAAUAUUACGGCUC"
reported_result = 0.32

[[record]]
sequence_record = "UCAGAGCAAUAUUACGUGUA"
reported_result = -2.18

[[record]]
sequence_record = "UGGUAGCAAUAUUACGUUUG"
reported_result = -0.669

[[record]]
sequence_record = "CUGGAGCAAUAUUACGUCUG"
reported_result = 0.0818


Provide self-splicing fitness (ln) for all items below, preserving their order.
1. GUGCAGCAAUAUUACGAGAC
2. CACAAGCAAUAUUACGCAAU

1. -1.53
2. -3.31

====

I'd appreciate it if you could supply self-splicing fitness (ln) values for the items below.
experiment: self-splicing fitness, log relative to wild type (ln ratio); higher = more splicing; Tetrahymena group I intron in knt gene, E. coli kanamycin selection, DiMSum; sequences stand for … in CUCUCU…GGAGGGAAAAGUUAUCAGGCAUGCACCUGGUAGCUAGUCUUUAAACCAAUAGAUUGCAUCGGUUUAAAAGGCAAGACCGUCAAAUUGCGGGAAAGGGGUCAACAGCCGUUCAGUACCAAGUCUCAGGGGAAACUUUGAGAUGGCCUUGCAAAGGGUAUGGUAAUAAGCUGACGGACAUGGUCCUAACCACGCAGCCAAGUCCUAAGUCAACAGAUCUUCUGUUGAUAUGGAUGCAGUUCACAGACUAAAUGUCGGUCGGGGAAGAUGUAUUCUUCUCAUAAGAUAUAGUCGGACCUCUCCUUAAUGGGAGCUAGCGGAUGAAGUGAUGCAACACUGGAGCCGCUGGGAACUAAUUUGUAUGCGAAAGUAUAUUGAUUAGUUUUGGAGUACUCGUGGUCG
reported conditions: 37 °C
One number for each entry.

Would you please look over these solved cases?
[[record]]
sequence_record = "GGUUAGCAAUAUUACGUCAU"
reported_result = 0.277

[[record]]
sequence_record = "UAAUAGCAAUAUUACGACCA"
reported_result = 0.216

[[record]]
sequence_record = "CGGGAGCAAUAUUACGCGAC"
reported_result = -1.59

[[record]]
sequence_record = "CUAAAGCAAUAUUACGAAAG"
reported_result = 0.21

[[record]]
sequence_record = "AUACAGCAAUAUUACGUAGU"
reported_result = -0.206


Provide self-splicing fitness (ln) for all items below, preserving their order.
1. CUUCAGCAAUAUUACGCAUU
2. ACGAAGCAAUAUUACGUAGU
3. UGUUAGCAAUAUUACGCCAG

1. -2.28
2. -2.13
3. -1.76

====

experiment: self-splicing fitness, log relative to wild type (ln ratio); higher = more splicing; Tetrahymena group I intron in knt gene, E. coli kanamycin selection, DiMSum; sequences stand for … in CUCUCU…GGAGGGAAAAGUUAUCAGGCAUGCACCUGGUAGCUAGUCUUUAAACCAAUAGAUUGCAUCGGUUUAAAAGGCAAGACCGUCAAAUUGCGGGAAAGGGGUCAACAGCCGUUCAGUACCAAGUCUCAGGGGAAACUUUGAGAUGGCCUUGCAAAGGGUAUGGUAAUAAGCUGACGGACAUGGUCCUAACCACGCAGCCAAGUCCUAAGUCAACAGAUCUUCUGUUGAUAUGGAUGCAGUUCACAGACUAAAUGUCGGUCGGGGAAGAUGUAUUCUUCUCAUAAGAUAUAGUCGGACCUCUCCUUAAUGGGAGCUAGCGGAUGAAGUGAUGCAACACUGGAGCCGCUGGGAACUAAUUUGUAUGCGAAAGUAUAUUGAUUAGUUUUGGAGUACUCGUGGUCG
reported conditions: 30 °C
I'd appreciate it if you could supply self-splicing fitness (ln) values for the items below.

[[record]]
sequence_record = "GACUAGCAAUAUUACGUUAA"
measured_endpoint = "self-splicing fitness (ln)"
reported_result = -2.16

[[record]]
sequence_record = "GGACAGCAAUAUUACGCGUG"
measured_endpoint = "self-splicing fitness (ln)"
reported_result = -1.17

[[record]]
sequence_record = "CUAAAGCAAUAUUACGUGCU"
measured_endpoint = "self-splicing fitness (ln)"
reported_result = -2.89


Provide self-splicing fitness (ln) for all items below, preserving their order.
1. GGCGAGCAAUAUUACGAAAU
2. UCUUAGCAAUAUUACGAUUA
3. GCAAAGCAAUAUUACGACGG
4. AGGCAGCAAUAUUACGAUCU

1: -2.66; 2: -2.37; 3: -2.23; 4: 0.0214

Provide self-splicing fitness (ln) for all items below, preserving their order.
1. CGCAAGCAAUAUUACGGUUA
2. UAGGAGCAAUAUUACGAACC
3. UGCUAGCAAUAUUACGCUUA
4. ACGGAGCAAUAUUACGCGCG
5. CGCUAGCAAUAUUACGUCUA
6. CUCGAGCAAUAUUACGAAAC

1: -2.32; 2: -3.08; 3: -1.31; 4: -2; 5: -2.47; 6: -3.52

Provide self-splicing fitness (ln) for all items below, preserving their order.
1. GGAGAGCAAUAUUACGUCGC
2. UAAUAGCAAUAUUACGACAG

1. -1.99
2. -2.3

Provide self-splicing fitness (ln) for all items below, preserving their order.
1. GCUCAGCAAUAUUACGCUAA
2. UCAAAGCAAUAUUACGUUUC
3. GGAGAGCAAUAUUACGAUUC
4. GCCAAGCAAUAUUACGCAAU

-2.11
-4.09
-1.58
-1.35
